This listing pairs binders with measured IC50.
- systemName: HLA-A*3101 (human)
- method: competition with 125I probe peptide for purified HLA
Answer with a number only, understood to be in nM.

Example results:
| binder | reportedMeasurement |
| --- | --- |
| RVLTLFNVTK [CEA.554.V42K10] | 234 |
| TVSPSYTYYK [CEA.419.V2K10] | 3670 |

Exam item: # get_value(readout='IC50', item= RVLTLLSVTK [CEA.376.V2K10] )
Marked response: 164
